B1: ADAMTS4 (parent)
chain: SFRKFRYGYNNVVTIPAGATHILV

- Variants of: B1
- assayNotes: protein stability index of a GFP-peptide fusion (GPS, HEK-293T) (PSI 1-6); higher = more stable;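 further: lentivirally expressed fusions sorted by FACS into six bins by GFP to DsRed ratio, PSI derived from sequencing read proportions per bin multiplied by bin number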
- experimentalContext: c terminus: a fixed tail appended
Short version: protein stability index at least 2 is Condition met, less is Condition not met.

>  <biosequence>
SFRNFRYGYNNVVTIPAGATHILV [K4N]

>  <assignedClass>
Condition met

$$$$

Check this variant for protein stability index at or above 2: SWRKFRYGYNNVVTIPAGATHILV [F2W]
Condition met

Check this variant for protein stability index at or above 2: SFRKFRYGMNNVVTIPAGATHILV [Y9M]
Condition not met

Check this variant for protein stability index at or above 2: SFRKFRYGYNNVVTIPAGATHILL [V24L]
Condition met

Check this variant for protein stability index at or above 2: SFRKFRYGYNNVVTIPAYATHILV [G18Y]
Condition not met

Check this variant for protein stability index at or above 2: SFRKFRYGYNNVVTWPAGATHILV [I15W]
Condition not met

Check this variant for protein stability index at or above 2: SFRRFRYGYNNVVTIPAGATHILV [K4R]
Condition met

Check this variant for protein stability index at or above 2: SFRKLRYGYNNVVTIPAGATHILV [F5L]
Condition met

Check this variant for protein stability index at or above 2: SFRKFRYGYNNVVTFPAGATHILV [I15F]
Condition not met

Check this variant for protein stability index at or above 2: SFRKFRYGYNNVVTIPAGATHILM [V24M]
Condition met

Check this variant for protein stability index at or above 2: SFRKFRYGYNNVVTIPKGATHILV [A17K]
Condition not met

Check this variant for protein stability index at or above 2: SFRKFRYGYNNVVTIPAGATHSLV [I22S]
Condition met
